- TARGET OR TEST SYSTEM: purified recombinant HCMV polymerase (UL54) (Human cytomegalovirus)
- Construct: made in house; host or cells: Sf21 insect cells (baculovirus)
- Sequence (P08546 whole entry): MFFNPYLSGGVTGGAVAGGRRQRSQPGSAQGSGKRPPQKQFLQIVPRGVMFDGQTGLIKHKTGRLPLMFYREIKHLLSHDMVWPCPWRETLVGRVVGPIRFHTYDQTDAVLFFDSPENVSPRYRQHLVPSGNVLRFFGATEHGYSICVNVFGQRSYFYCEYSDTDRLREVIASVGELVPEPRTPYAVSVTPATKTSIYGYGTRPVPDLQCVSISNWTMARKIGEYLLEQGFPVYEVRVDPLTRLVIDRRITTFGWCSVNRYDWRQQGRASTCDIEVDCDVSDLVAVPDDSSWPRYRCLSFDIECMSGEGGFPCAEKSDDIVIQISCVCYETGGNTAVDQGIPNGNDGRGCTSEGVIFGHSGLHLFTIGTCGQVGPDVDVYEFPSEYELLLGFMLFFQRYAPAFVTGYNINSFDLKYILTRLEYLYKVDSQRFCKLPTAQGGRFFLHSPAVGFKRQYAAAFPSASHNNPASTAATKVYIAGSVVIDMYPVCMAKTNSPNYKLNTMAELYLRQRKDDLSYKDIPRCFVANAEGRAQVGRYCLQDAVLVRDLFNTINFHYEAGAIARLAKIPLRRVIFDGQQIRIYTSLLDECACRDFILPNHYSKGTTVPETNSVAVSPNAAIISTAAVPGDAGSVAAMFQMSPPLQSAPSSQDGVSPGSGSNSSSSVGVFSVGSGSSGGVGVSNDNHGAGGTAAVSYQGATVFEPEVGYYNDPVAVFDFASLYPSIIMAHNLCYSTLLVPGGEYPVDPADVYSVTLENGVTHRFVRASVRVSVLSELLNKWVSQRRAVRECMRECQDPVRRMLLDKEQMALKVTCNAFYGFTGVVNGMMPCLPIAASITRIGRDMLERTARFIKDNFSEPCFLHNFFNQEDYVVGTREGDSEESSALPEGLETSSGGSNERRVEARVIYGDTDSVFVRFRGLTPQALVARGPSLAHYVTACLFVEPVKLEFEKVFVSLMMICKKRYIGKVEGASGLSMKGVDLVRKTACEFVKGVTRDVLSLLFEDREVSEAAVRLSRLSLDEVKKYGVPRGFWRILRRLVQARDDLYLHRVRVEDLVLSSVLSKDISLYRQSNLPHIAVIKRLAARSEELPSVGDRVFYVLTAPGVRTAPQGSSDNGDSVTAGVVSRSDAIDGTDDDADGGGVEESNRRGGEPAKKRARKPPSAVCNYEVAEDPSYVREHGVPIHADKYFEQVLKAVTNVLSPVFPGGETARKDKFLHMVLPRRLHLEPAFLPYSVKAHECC
- EXPERIMENT: HCMV Polymerase LANCE TR-FRET Assay
- Assay type: biochemical
- SETUP CONDITIONS: 2 nM GST-UL54, 37° C. for 30 min, 5% DMSO; read-out: Example 34 IC50
RESULT TYPE: pIC50
Friendly reminder that pIC50 comes from taking -log10 of the concentration in mol/L.

CC1(C)CN(C(=O)Cn2c(=O)c(C(=O)NCc3ccc(Cl)cc3)cc3c4c(cnc32)NCCN4)C1	6.48
Cc1cn(C)c2c1cnc1c2cc(C(=O)NCc2ccc(Cl)cc2)c(=O)n1CC(=O)N1CC(C)C1	7.19
COc1cc(CNC(=O)c2cc3c4c(cnc3n(CC(=O)N3CC(C)(F)C3)c2=O)nc(C)n4C)ccc1Cl	6.77

Q. Report pIC50 for Cn1cc(N2CCOc3c2cnc2c3cc(C(=O)NCc3ccc(Cl)cc3)c(=O)n2CC(=O)N2CC(C)(F)C2)cn1
A. 6.70

Q. Give the measured pIC50 for Cn1c(=O)n(C)c2c3cc(C(=O)NCc4ccc(Cl)cc4)c(=O)n(CC(=O)N4CC(C)(F)C4)c3ncc21
A. 7.05
